TGT: T1, fHbp m001932 (Neisseria meningitidis; fHbp …, chimera)
T1 chain: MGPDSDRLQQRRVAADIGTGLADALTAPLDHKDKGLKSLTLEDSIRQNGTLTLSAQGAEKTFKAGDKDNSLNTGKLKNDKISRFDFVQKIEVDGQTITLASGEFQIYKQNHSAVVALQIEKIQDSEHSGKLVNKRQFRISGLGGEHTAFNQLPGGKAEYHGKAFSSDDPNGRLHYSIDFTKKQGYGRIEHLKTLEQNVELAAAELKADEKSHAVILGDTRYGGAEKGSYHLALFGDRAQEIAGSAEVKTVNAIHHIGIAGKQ
METHOD_SUMMARY: BLI
RECORDED_CONDITIONS: both partners purified
MEASURED_PARAMETER: pKd
Numbers only, as −log10 of the molar value.

Below: 3 binders and their reported pKd.
BINDER	pKd
mAb 1E6 (human) (antibody, V domains shown, source: Expi293, purified (MabSelect SuRe, SEC); copies: 2 + 2) VH: EVQLVQSGAEVKKPGSSVKVSCKASGGTVIDYPITWVRQAPGQGLEWVGGFVPLFRTSNYGQKFQGRVTITADKSTSTASMELNSLTSEDTAIYYCARGDTAMGPFDYWGQGTLVTVSS VL: SYVLTQPPSLSVAPGKTATLTCGGNNIAGKTVHWYQQRPGQAPVLVISYDSDRPSGIPERFSGSNSANTATLTISRVEAGDEADYYCQVWDRNSDHWVFGGGTKLTVL	9.52
chimeric antibody h12C1 (antibody, V domains shown, also called humanized 12C1; source: Expi293, purified (MabSelect SuRe, SEC); copies: 2 + 2) VH: QVQLQESGPELVKPGASVKISCKASGYSFSDYNMSWVKQSNGKSLEWIGIIDPKYGTINYNQKFKGKATLTVDQASSTAYMQLNSLTSEDSAVYYCVRDYYGSSYFDYWGQGTTLTVSS VL: DIVLTQSPSSIYASLGERVTLTCKASQDIHNYLNWFQQKPGKSPKTLIYRANRLVDGVPSRFSGGGSGQDYSLTISSLEFEDIGIYYCLQYDEFPPTFGGGTRLEIK	7.45
mAb 4B3 (human) (antibody, V domains shown, also called 4B3-2; source: Expi293, purified (MabSelect SuRe, SEC); copies: 2 + 2) VH: QVQLVQSGGGLVKPGGSLRLSCAASGFPFSSYYMSWIRQAPGKGLEWVSDINNSGNVKEYADFVKGRLTISRDNVKNSMYLHMNSLRVEDTAVYYCARNRGRFDVWGQGTLVTVSA VL: EIVMTQSPGTLSLSPGETATLSCRASQMISSPFLAWYQQRRGQAPRLLIYGASTRATDTPDRFRGSGSGTDFILTISRLEPEDFAVYYCQYYDDSPFTFGQGTKLEIK	9.09

Now examine the next entry.
What value of pKd has been reported for the following binder? chimeric antibody hJAR5 (antibody, V domains shown, also called hJAR5-2; humanized JAR5; source: Expi293, purified (MabSelect SuRe, SEC); copies: 2 + 2) VH: QVQMQQPGAELVKPGASVKLSCKASGYTFISYWMHWVKQRPGRGLEWIGRIAPDTGIIYYNEKFKNKATLTVDTPSSTAYMQLNSLTSEDSAVYYCARYLKYDGSTYRFDYWGQGTTLTVSS VL: DIVMTQAAPSVPVTPGESVSISCRSSKSLLHSNGNTYLFWFLQRPGQSPQLLIYRMSNLASGVPDRFSGSGSGTSFTLRISRVEAEDVGVYYCMQHLEYPYTFGGGTKLEIK
8.43
